details: Glass; DSC
attribute_measured: Glass transition temperature (°C)

                                   molecule  recorded_value
0  C[n+]1ccn(Cc2ccccc2)c1.O=S(=O)([O-])C(F)(F)C(F)F           -44.0
1  C[n+]1ccn(Cc2ccccc2)c1.F[B-](F)(F)F [1-benzyl-3-methylimidazolium tetrafluoroborate]           -37.8
2  C[n+]1ccn(Cc2ccccc2)c1.O=S(=O)([N-]S(=O)(=O)C(F)(F)F)C(F)(F)F           -56.4
3  C[n+]1ccn(Cc2ccccc2)c1.[Cl-] [1-benzyl-3-methyl-1H-imidazolium chloride]            -8.4
4  Cn1cc[n+](Cc2ccccc2)c1.F[P-](F)(F)(F)(F)F [1-benzyl-3-methylimidazolium hexafluorophosphate]           -28.3
